Assay: Selectivity index, ratio of Ki for ERalpha (unknown origin) to Ki for ERbeta (unknown origin)
Recorded Ratio Ki, one value per entry.

Solved entries:
MOLECULE	MEASURED_VALUE
CCN(c1ccc(OCCCCC(=O)N[C@H](C(=O)N2C[C@H](O)C[C@H]2C(=O)N[C@@H](C)c2ccc(-c3scnc3C)cc2)C(C)(C)C)cc1)S(=O)(=O)C1CC2OC1C(c1ccc(O)cc1)=C2c1ccc(O)cc1 (stereo partly drawn)	5.63
CCN(c1ccc(OCCCCCCCCC(=O)N[C@H](C(=O)N2C[C@H](O)C[C@H]2C(=O)NCc2ccc(-c3scnc3C)cc2)C(C)(C)C)cc1)S(=O)(=O)C1CC2OC1C(c1ccc(O)cc1)=C2c1ccc(O)cc1 (stereo partly drawn)	2.21

INPUT: Tell me its Ratio Ki given CCN(c1ccc(OCCCCCCCCCC(=O)N[C@H](C(=O)N2C[C@H](O)C[C@H]2C(=O)NCc2ccc(-c3scnc3C)cc2)C(C)(C)C)cc1)S(=O)(=O)C1CC2OC1C(c1ccc(O)cc1)=C2c1ccc(O)cc1 (stereo partly drawn) as the entry.
OUTPUT: 2.9

----------
Recorded Ki, one value per entry.
Target: Estrogen receptor beta (Homo sapiens, UniProt Q92731)
Sequence (Q92731 whole entry): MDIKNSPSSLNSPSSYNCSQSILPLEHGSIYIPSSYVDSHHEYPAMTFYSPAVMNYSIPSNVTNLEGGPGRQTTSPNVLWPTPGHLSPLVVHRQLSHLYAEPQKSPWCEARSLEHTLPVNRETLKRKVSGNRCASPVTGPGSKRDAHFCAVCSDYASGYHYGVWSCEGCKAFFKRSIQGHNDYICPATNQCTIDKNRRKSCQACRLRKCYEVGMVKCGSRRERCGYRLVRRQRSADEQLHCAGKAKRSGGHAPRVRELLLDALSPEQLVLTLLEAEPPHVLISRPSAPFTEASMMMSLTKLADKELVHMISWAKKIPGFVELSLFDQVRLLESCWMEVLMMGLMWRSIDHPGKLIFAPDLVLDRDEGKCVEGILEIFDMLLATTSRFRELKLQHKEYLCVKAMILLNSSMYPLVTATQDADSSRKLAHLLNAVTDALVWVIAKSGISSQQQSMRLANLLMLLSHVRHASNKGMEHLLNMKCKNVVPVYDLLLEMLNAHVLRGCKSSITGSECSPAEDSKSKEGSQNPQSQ
Form entry: value (µM) — number only.

Solved entries:
COMPOUND	Ki [µM]
O=C(COc1ccc(C2CCC(=O)NC2=O)cc1)NCCCCCCNC(=O)COc1ccc(N(CC(F)(F)F)S(=O)(=O)C2CC3OC2C(c2ccc(O)cc2)=C3c2ccc(O)cc2)cc1 (stereo not drawn)	7.15
CCN(c1ccc(OCCCCCC(=O)N[C@H](C(=O)N2C[C@H](O)C[C@H]2C(=O)N[C@@H](C)c2ccc(-c3scnc3C)cc2)C(C)(C)C)cc1)S(=O)(=O)C1CC2OC1C(c1ccc(O)cc1)=C2c1ccc(O)cc1 (stereo partly drawn)	13.1

INPUT: Tell me its Ki given Cc1ncsc1-c1ccc([C@H](C)NC(=O)[C@@H]2C[C@H](O)CN2C(=O)[C@@H](NC(=O)CCCCCOc2ccc(N(CC(F)(F)F)S(=O)(=O)C3CC4OC3C(c3ccc(O)cc3)=C4c3ccc(O)cc3)cc2)C(C)(C)C)cc1 (stereo partly drawn) as the entry.
OUTPUT: 15.7

----------
Target: Estrogen receptor beta (Homo sapiens, UniProt Q92731)
Assay: Binding affinity to ERbeta (unknown origin) assessed as relative binding affinity incubated for 2 hrs by fluorescence polarization assay relative to estradiol
ASSAY_ENDPOINT: RBA (%)
Form entry: value (%) — number only.

COMPOUND	MEASUREMENT_UNITS	RBA
O=C(COc1ccc(C2CCC(=O)NC2=O)cc1)NCCNC(=O)COc1ccc(N(CC(F)(F)F)S(=O)(=O)C2CC3OC2C(c2ccc(O)cc2)=C3c2ccc(O)cc2)cc1 (stereo not drawn)	%	0.16
Cc1ncsc1-c1ccc(CNC(=O)[C@@H]2C[C@@H](O)CN2C(=O)[C@@H](NC(=O)CCCCCOc2ccc(N(CC(F)(F)F)S(=O)(=O)C3CC4OC3C(c3ccc(O)cc3)=C4c3ccc(O)cc3)cc2)C(C)(C)C)cc1 (stereo partly drawn)	%	0.04

INPUT: Tell me its RBA given CCN(c1ccc(OCCCCCC(=O)N[C@H](C(=O)N2C[C@H](O)C[C@H]2C(=O)NCc2ccc(-c3scnc3C)cc2)C(C)(C)C)cc1)S(=O)(=O)C1CC2OC1C(c1ccc(O)cc1)=C2c1ccc(O)cc1 (stereo partly drawn) as the entry.
OUTPUT: 0.08

Data provenance is ChEMBL document CHEMBL5338775.
